// provenance: paper PMC6751662

# test-system: NPR-4b (Caenorhabditis elegans, UniProt A0A078BTK0)
# Sequence (A0A078BTK0 1-376): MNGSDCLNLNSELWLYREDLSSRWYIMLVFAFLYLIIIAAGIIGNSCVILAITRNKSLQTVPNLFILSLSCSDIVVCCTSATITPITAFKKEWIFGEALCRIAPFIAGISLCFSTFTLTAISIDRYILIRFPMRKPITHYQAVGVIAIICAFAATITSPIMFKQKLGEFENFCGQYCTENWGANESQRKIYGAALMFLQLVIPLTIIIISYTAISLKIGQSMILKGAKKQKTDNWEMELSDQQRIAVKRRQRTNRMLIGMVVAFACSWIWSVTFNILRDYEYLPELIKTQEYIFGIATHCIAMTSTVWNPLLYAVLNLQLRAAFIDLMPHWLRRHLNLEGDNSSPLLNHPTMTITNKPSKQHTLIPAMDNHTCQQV
# method-description: IP accumulation assay, chimeric GαΔ6qi4myr, NPR-4b
# Type: cell-based, C. elegans
# experimental-setup: 10 µM peptide, 1 h, HBSS + 20 mM LiCl; HEK293 receptor + GαΔ6qi4myr; HTRF IP-One; mean of >=3 independent experiments (Tables S5 and S8)
Give measured IP accumulation with GαΔ6qi4myr, NPR-4b for each item. Keep answers brief.

Challenge: Field: IP accumulation with GαΔ6qi4myr, NPR-4b (NPR-4b (Caenorhabditis elegans, UniProt A0A078BTK0)). Entry: NPENDTPFGTMRF-NH2 [FLP-3-4, C. elegans FMRFamide-like peptide, C-terminally amidated, synthesized by SPPS]
Response given: 11.46 x-fold of basal

Challenge: One more substance: APKPKFIRF-NH2 [FLP-5-1, C. elegans FMRFamide-like peptide, C-terminally amidated, synthesized by SPPS]
Response given: 5.53 x-fold of basal

Challenge: Also need AGSDPNFLRF-NH2 [FLP-1-2, C. elegans FMRFamide-like peptide, C-terminally amidated, synthesized by SPPS] , thanks.
Response given: 8.55 x-fold of basal

Challenge: Now this one: ASPSFIRF-NH2 [FLP-4-2, C. elegans FMRFamide-like peptide, C-terminally amidated, synthesized by SPPS]
Response given: 12.66 x-fold of basal
